- Test system: HTT mRNA
- assay text: Splicing RT-qPCR assay, HTT canonical (CJ) and alternative (AJ) junction mRNA
- Format: cell-based, human
- condition description: Homo sapiens, A673 or K562 cells, 24 hours compound treatment, read-out: HTT AJ (AC50, increase in alternative junction mRNA)
measurement type: AC50

# example entries with known answers
>  <compound>
CCOc1nc(NC(=O)c2ccc(N3CC[C@H](NC)C3)c3cn(C)nc23)cn2cc(C)nc12 [Compound 434]

>  <AC50>
1 to 10 µM

$$$$
>  <compound>
CCn1cc2c(N3CCNCC3)ccc(C(=O)Nc3cc(F)c4nc(C)c(F)n4c3)c2n1 [Compound 565]

>  <AC50>
> 10 µM

$$$$
>  <compound>
Cc1cn2cc(NC(=O)c3ccc(N(C)C4CCN(C)CC4)c4cc(C)oc34)cc(F)c2n1 [Compound 200]

>  <AC50>
1 to 10 µM

$$$$
>  <compound>
CN[C@@H]1CCN(c2ccc(C(=O)Nc3nc(OC)c4nc(C)cn4c3F)c3nn(C)cc23)C1 [Compound 651]

>  <AC50>
> 10 µM

$$$$
>  <compound>
Cc1cn2cc(NC(=O)c3ccc(N4CC(C)(C)NC(C)(C)C4)c4cc(C)oc34)cc(F)c2n1 [Compound 195]

>  <AC50>
> 10 µM

$$$$
>  <compound>
CN[C@@H]1CCN(c2ccc(C(=O)Nc3cn4cc(C)nc4c(OC)n3)c3nn(CCOC)cc23)C1 [Compound 431]

>  <AC50>
> 10 µM

$$$$
>  <compound>
CCN[C@@H]1CCN(c2ccc(C(=O)Nc3cc(F)c4nc(C)cn4c3)c3nn(C)cc23)C1 [Compound 520]

>  <AC50>
1 to 10 µM

$$$$

Now look at this one.
Quick check: AC50 of Cc1nc2cc(NC(=O)c3ccc(N4CCNCC4)c4cn(C)nc34)ccn2n1 [Compound 489] ?
> 10 µM
